// provenance: the supplement of paper PMC8728848

We begin with a simple list: items and their reported glycan array binding signal (z-score).
biological target: Neu5Ac(a2-3)Gal(b1-4)GlcNAc(b1-3)Gal(b1-4)GlcNAc(b1-3)[Neu5Ac(a2-3)Gal(b1-4)GlcNAc(b1-3)Gal(b1-4)GlcNAc(b1-6)]GalNAc; test: glycan array binding signal (z-score within array); higher = stronger binding; conditions: glycan notation: IUPAC condensed, linker removed
About 410 targets per protein were measured; listed, in parts, are those with the strongest signals and a random draw of the rest.
# output: bare number, no unit

Below: 2 binders and their reported glycan array binding signal (z-score).
ECL (Erythrina cristagalli), Q6YD91 (protein) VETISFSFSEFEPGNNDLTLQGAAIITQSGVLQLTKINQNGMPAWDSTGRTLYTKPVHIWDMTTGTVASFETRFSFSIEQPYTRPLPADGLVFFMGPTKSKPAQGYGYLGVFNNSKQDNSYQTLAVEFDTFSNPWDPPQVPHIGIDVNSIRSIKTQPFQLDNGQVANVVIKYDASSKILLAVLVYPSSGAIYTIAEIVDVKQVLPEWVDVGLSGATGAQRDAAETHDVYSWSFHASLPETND = -0.038
DCIR1 (Mus musculus), Q9QZ15 (protein) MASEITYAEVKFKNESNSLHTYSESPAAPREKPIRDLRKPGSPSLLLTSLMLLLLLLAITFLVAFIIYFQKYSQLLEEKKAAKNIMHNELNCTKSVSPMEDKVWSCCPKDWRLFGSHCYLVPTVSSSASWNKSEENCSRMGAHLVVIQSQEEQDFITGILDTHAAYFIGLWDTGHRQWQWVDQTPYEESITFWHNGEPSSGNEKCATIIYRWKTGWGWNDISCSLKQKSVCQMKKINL = 1.36

Moving on to another binder below.
Query (binder): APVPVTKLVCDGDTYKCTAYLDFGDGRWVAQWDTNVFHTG [PhoSpL (Pholiota squarrosa)] ; field requested: glycan array binding signal (z-score)
-0.169
